Provide the reported pest or weed control at 250 g/ha of each item.
- Test system: Digitaria sanguinalis (DIGSA)
- assay comment: Example B pre-emergence herbicidal greenhouse test
- Type: in vivo
- condition label: 480 h, evaluated after 20 days, 100=total damage to plant, 0=no damage
A bare number is not enough; add the unit after it.

See these solved cases before continuing.
| compound | value type | val |
| --- | --- | --- |
| Cc1ccc(-c2ccc(Cl)cc2)cc1C1=C(O)[C@H]2CC[C@H](C2)C1=O | pest or weed control at 250 g/ha | 50% |
| Cc1ccc(-c2ccc(F)c(Cl)c2)cc1C1=C(O)[C@H]2CC[C@H](C2)C1=O (single isomer, unassigned) | pest or weed control at 250 g/ha | 0% |
| Cc1ccc(-c2ccc(Cl)c(F)c2)cc1C1=C(O)[C@H]2CC[C@H](C2)C1=O (single isomer, unassigned) | pest or weed control at 250 g/ha | 70% |
| CCc1ccc(-c2ccc(F)c(Cl)c2)cc1C1=C(O)[C@H]2CC[C@H](C2)C1=O (single isomer, unassigned) | pest or weed control at 250 g/ha | 90% |
| COc1cc(Cl)ccc1-c1ccc(C)c(C2=C(O)[C@H]3CC[C@H](C3)C2=O)c1 (single isomer, unassigned) | pest or weed control at 250 g/ha | 0% |

Need pest or weed control at 250 g/ha for each of these compounds.
1. CCc1ccc(-c2ccc(Cl)cc2C)cc1C1=C(O)[C@H]2CC[C@H](C2)C1=O (single isomer, unassigned)
2. COc1ccc(Cl)cc1-c1ccc(C)c(C2=C(O)[C@H]3CC[C@H](C3)C2=O)c1 (single isomer, unassigned)
3. CCc1cc(-c2ccc(C)cc2)cc(CC)c1C1=C(O)[C@H]2CC[C@H](C2)C1=O
4. CCc1ccc(-c2ccc(Cl)cc2OC)cc1C1=C(O)[C@H]2CC[C@H](C2)C1=O (single isomer, unassigned)
5. Cc1cc(-c2ccccc2)cc(C)c1C1=C(O)[C@H]2CC[C@H](C2)C1=O
6. CCc1ccc(-c2ccc(Cl)cc2Cl)cc1C1=C(O)[C@H]2CC[C@H](C2)C1=O
7. CCc1ccc(-c2ccc(Cl)cc2F)cc1C1=C(O)[C@H]2CC[C@H](C2)C1=O (single isomer, unassigned)
8. Cc1ccc(-c2ccc(Cl)cc2F)cc1C1=C(O)[C@H]2CC[C@H](C2)C1=O (single isomer, unassigned)

**Result**
70%
0%
90%
60%
100%
80%
100%
80%

Need pest or weed control at 250 g/ha for each of these compounds.
1. Cc1ccc(-c2cc(Cl)cc(Cl)c2)cc1C1=C(O)[C@H]2CC[C@H](C2)C1=O (single isomer, unassigned)
2. CCc1ccc(-c2ccc(Cl)cc2Cl)cc1C1=C(OC(=O)OC)[C@H]2CC[C@H](C2)C1=O (single isomer, unassigned)
3. Cc1ccc(-c2ccc(Cl)cc2C)cc1C1=C(O)[C@H]2CC[C@H](C2)C1=O (single isomer, unassigned)

**Result**
0%
100%
0%

Source: patent US8828908B2
